Protocol: self-splicing fitness, log relative to wild type (ln ratio); higher = more splicing; Tetrahymena group I intron in knt gene, E. coli kanamycin selection, DiMSum; sequences stand for … in CUCUCU…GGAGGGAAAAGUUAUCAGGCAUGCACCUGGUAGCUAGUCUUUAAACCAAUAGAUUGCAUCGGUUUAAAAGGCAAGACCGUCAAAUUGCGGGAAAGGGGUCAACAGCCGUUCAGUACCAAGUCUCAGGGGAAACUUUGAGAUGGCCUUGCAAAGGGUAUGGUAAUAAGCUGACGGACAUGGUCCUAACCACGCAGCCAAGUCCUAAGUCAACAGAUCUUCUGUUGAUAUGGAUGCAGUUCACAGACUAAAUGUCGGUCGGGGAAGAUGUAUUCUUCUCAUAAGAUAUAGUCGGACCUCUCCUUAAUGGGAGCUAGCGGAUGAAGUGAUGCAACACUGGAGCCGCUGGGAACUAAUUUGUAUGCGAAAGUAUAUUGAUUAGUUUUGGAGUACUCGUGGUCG;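 further: selection with 25 µg/mL kanamycin versus none on LB agar overnight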
Measurement Conditions: 37 °C
# cutoff -2 applies to self-splicing fitness (ln); >= gives Satisfied, < gives Not satisfied

Determine whether this sequence has self-splicing fitness (ln) no lower than -2: UGGGAGCAAUAUUACGAACU
Satisfied
